So I've got a bunch of compounds here, and I need their Activity of inhibiting activated blood coagulation factor X (pIC50) values.
Target: activated human blood coagulation factor X (Homo sapiens)
Construct: purchased Enzyme Research Co
Test: Determination of activity of inhibiting the activated blood-coagulation factor X (chromogenic substrate, initial rate)
Type: biochemical
Conditions: tris hydrochloride buffer pH 8.4, room temperature, absorbance 405 nm
The answer should be written as a number, with no unit following it.

Input line: Look up Activity of inhibiting activated blood coagulation factor X (pIC50) for this compound: N=C(N)c1ccc(CCC(=O)O)c(OCCNC(=O)C2CCN(c3ccncc3)CC2)c1.O=C(O)C(F)(F)F.O=C(O)C(F)(F)F [Compd. of Ex. 6]
Output line: 7.4

Input line: Look up Activity of inhibiting activated blood coagulation factor X (pIC50) for this compound: CC(=N)N1CCC(Oc2ccc(C(=O)N[C@@H](COc3cc(C(=N)N)ccc3CCC(=O)O)CC(=O)O)cc2)CC1.O=C(O)C(F)(F)F.O=C(O)C(F)(F)F [Compd. of Ex. 10]
Output line: 7.4

Input line: Look up Activity of inhibiting activated blood coagulation factor X (pIC50) for this compound: CC(=N)N1CCC(Oc2ccc(C(=O)NCCOc3cc(C(=N)N)ccc3CCC(=O)O)cc2)CC1.O=C(O)C(F)(F)F.O=C(O)C(F)(F)F [Compd. of Ex. 4]
Output line: 7.5

----------
Target: activated human blood coagulation factor X (Homo sapiens, UniProt P00742)
Construct: purchased Enzyme Research Co
Sequence (P00742 235-488 limits assumed): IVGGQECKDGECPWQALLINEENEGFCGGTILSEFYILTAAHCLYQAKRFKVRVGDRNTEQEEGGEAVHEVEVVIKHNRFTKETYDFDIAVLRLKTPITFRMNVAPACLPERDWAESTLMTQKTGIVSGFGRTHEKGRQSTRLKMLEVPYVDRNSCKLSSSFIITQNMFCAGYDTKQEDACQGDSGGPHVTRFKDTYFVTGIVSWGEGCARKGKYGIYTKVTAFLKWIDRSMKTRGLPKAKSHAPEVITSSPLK
Sequence (P00742 41-179 partner limits assumed): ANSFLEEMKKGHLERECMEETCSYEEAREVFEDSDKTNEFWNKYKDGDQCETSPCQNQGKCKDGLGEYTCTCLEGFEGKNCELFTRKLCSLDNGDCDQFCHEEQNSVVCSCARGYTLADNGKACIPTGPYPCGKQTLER
Test: Determination of activity of inhibiting the activated blood-coagulation factor X (chromogenic substrate, initial rate)
Format: biochemical
Settings: tris hydrochloride buffer pH 8.4, room temperature, absorbance 405 nm
Procedure: Determination of Activity of Inhibiting the Activated Blood-coagulation Factor X 130 μl of 100 mM tris hydrochloride buffer adjusted to pH 8.4 was added to 10 μl of an aqueous solution of a compound to be tested. […] The absorbance was determined and then the initial reaction rate was determined. […] The absorbance was determined with MICROPLATE READER Model 3550-UV (a product of BIO RAD) at a wave length of 405 nm at intervals of 15 seconds for 16 minutes.
VALUE KIND: Activity of inhibiting activated blood coagulation factor X (pIC50)
The answer should be written as a number, with no unit following it.

Input line: Look up Activity of inhibiting activated blood coagulation factor X (pIC50) for this compound: N=C(N)c1ccc(CCCO)c(OCCNC(=O)C2CCN(c3ccncc3)CC2)c1.O=C(O)C(F)(F)F.O=C(O)C(F)(F)F [Compd. of Ex. 43]
Output line: 7.8

Input line: Look up Activity of inhibiting activated blood coagulation factor X (pIC50) for this compound: N=C(N)c1ccc(CO)c(OCCNC(=O)C2CCN(c3ccncc3)CC2)c1.O=C(O)C(F)(F)F.O=C(O)C(F)(F)F [Compd. of Ex. 37]
Output line: 7.3

Input line: Look up Activity of inhibiting activated blood coagulation factor X (pIC50) for this compound: CN1CCN=C1c1ccc(C(=O)NCCOc2cc(C(=N)N)ccc2CC(=O)C(=O)O)cc1.O=C(O)C(F)(F)F.O=C(O)C(F)(F)F [Compd. of Ex. 51]
Output line: 8.1

----------
Molecular target: activated human blood coagulation factor X (Homo sapiens, UniProt P00742)
Construct: purchased Enzyme Research Co
Experiment: Determination of activity of inhibiting the activated blood-coagulation factor X (chromogenic substrate, initial rate)
Assay type: biochemical
Conditions: tris hydrochloride buffer pH 8.4, room temperature, absorbance 405 nm; read-out: Activity of inhibiting activated blood coagulation factor X (pIC50) (converted)
VALUE KIND: IC50 (nM)
Your answer should be a plain number; it is taken to be in nM.

Input line: Which IC50 is reported with activated human blood coagulation factor X (Homo sapiens, UniProt P00742) for this entry: CC(=N)N1CCC(Oc2ccc(C(=O)N[C@@H](COc3cc(C(=N)N)ccc3O)CC(=O)O)cc2)CC1 [Compd. of Ex. 28, bistrifluoroacetate] ?
Output line: 15.8

Input line: Which IC50 is reported with activated human blood coagulation factor X (Homo sapiens, UniProt P00742) for this entry: CC(=N)N1CCC(Oc2ccc(C(=O)NCCOc3cc(C(=N)N)ccc3O)cc2)CC1 [Compd. of Ex. 14, bistrifluoroacetate] ?
Output line: 15.8

Input line: Which IC50 is reported with activated human blood coagulation factor X (Homo sapiens, UniProt P00742) for this entry: CCOC(=O)CCc1ccc(C(=N)N)cc1OCCNC(=O)C1CCN(c2ccncc2)CC1 [Compd. of Ex. 5, bistrifluoroacetate] ?
Output line: 63.1

Input line: Which IC50 is reported with activated human blood coagulation factor X (Homo sapiens, UniProt P00742) for this entry: N=C(N)c1ccc(CCC(=O)O)c(OC[C@@H](CC(=O)O)NC(=O)C2CCN(c3ccncc3)CC2)c1 [Compd. of Ex. 13, bistrifluoroacetate] ?
Output line: 25.1

Input line: Which IC50 is reported with activated human blood coagulation factor X (Homo sapiens, UniProt P00742) for this entry: N=C(N)c1ccc(O)c(OC[C@@H](CC(=O)O)NC(=O)C2CCN(c3ccncc3)CC2)c1 [Compd. of Ex. 29, bistrifluoroacetate] ?
Output line: 12.6
